Data origin: patent US9617286B2

Recorded measurements of Efficacy, one per entry
# Test system: Alternaria brassicae
# PROTOCOL_DESCRIPTION: In vivo preventive test on Alternaria brassicae (leaf spot on radish)
# RECORDED_CONDITIONS: preventive spray, 500 ppm of active ingredient, grading 6 days after contamination
MEASURED_QUANTITY: Efficacy (%)

[[record]]
molecule = "C[Si](C)(CN(C(=O)c1cccnc1C(F)F)C1CC1)c1ccccc1C(F)(F)F [Example 56]"
study_target = "Alternaria brassicae"
quantity_unit = "%"
numeric_result = 88

[[record]]
molecule = "CCc1ccccc1[Si](C)(C)CN(C(=O)c1cccnc1C(F)(F)F)C1CC1 [Example 20]"
study_target = "Alternaria brassicae"
quantity_unit = "%"
numeric_result = 75

[[record]]
molecule = "C[Si](C)(CN(C(=O)c1cccnc1C(F)(F)F)C1CC1)c1cc(F)ccc1Cl [Example 48]"
study_target = "Alternaria brassicae"
quantity_unit = "%"
numeric_result = 75

[[record]]
molecule = "Cc1ccccc1[Si](C)(C)CN(C(=O)c1cccnc1C(F)F)C1CC1 [Example 12]"
study_target = "Alternaria brassicae"
quantity_unit = "%"
numeric_result = 88

[[record]]
molecule = "CC[Si](C)(CN(C(=O)c1nccnc1C(F)(F)F)C1CC1)c1ccccc1Cl (centres unmarked) [Example 44]"
study_target = "Alternaria brassicae"
quantity_unit = "%"
numeric_result = 75

[[record]]
molecule = "C[Si](C)(CN(C(=O)c1cccnc1Cl)C1CC1)c1cc(F)ccc1Cl [Example 50]"
study_target = "Alternaria brassicae"
quantity_unit = "%"
numeric_result = 75

[[record]]
molecule = "C[Si](C)(CN(C(=O)c1nccnc1C(F)(F)F)C1CC1)c1cc(F)ccc1Cl [Example 49]"
study_target = "Alternaria brassicae"
quantity_unit = "%"
numeric_result = 75

[[record]]
molecule = "C[Si](C)(CN(C(=O)c1cccnc1C(F)F)C1CC1)c1ccc(F)cc1Cl [Example 45]"
study_target = "Alternaria brassicae"
quantity_unit = "%"
numeric_result = 90

